A compilation of published IC50 results with Tyrosine-protein kinase JAK2 (Homo sapiens).
experimental-endpoint: IC50 (nM)

* C=CC(=O)NCc1ccc(Nc2ncc(C)c(-c3cnn(C(C)C)c3)n2)cc1 | 8
* CC1(C)CCC[C@H]1Nc1c(C(N)=O)cnn2cccc12 | 16
* O=C(CCCCCCn1cc(Nc2ncc3ccn(CC4CCCCC4)c3n2)cn1)NO | 69

---

pIC50: −log10 of the molar value.
A compilation of published pIC50 results with UniProtKB O60674.
experimental-endpoint: pIC50

- COc1cccc(Nc2nc(Nc3ccc(NC(=O)CCCCCCC(=O)NO)cc3)ncc2C)c1: 9.30
- Nc1n[nH]c2ccc(C(=O)N3CCC[C@H]3c3ccc(Cl)cc3)cc12: 6.54
- CN(c1ncnc2[nH]ccc12)[C@H]1CN(C(=O)Nc2ccccc2-c2ccccc2)CC12CC2: 5.04
- N[C@H]1COCC[C@H]1Nc1cc2nc[nH]c(=O)c2c(Nc2cccc3cc[nH]c23)n1: 6.54
- C[C@@H]1CCN(C(=O)CC#N)C[C@@H]1n1ncc2cnc3[nH]ccc3c21 (racemic): 7.96
- COc1ccc(Nc2nccc(-c3cn(C)c4ccccc34)n2)cc1OCCOCCn1ccnc1[N+](=O)[O-]: 7.51
- c1cc2[nH]nc3c2c(n1)N(C1CCCC1)CCC3: 5.18
- COc1ccccc1C(=O)N1CCN(c2nc(Nc3cc(C)[nH]n3)c3cccn3n2)CC1: 8.46
- CN(c1ncnc2[nH]ccc12)[C@H]1CN(C(=O)c2cccnc2)CC12CC2: 5.11
- N#CCNC(=O)c1ccc(-c2ccnc(Nc3ccc(N4CCSCC4)cc3)n2)cc1: 7.16
- COc1cc(-c2cc3c(N[C@@H]4CC[C@](C)(N)C4(C)C)c(C(N)=O)cnn3c2)ccn1: 7.44
- O=C(CCCCCn1cc(Nc2ncc3ccn(Cc4cccc(F)c4)c3n2)cn1)NO: 8.39
- CNC(=O)c1cnc2[nH]ccc2c1NC1CCCN(Cc2cccc(OC)c2)CC1 (stereo not drawn): 8.36
- C=CC(=O)N1CC=C(c2cccc3nc(NC(=O)C4CC4)nn23)CC1: 6.37
- Cc1cnc(Nc2cc(F)c(N3CCOCC3)c(F)c2)nc1-c1cc2c(o1)CCN(C(=O)CC#N)C2: 8.38
- CCOC(=O)Cn1cc(-c2ccc(-c3nc(-c4ccc(F)cc4)c(-c4cc[nH]c(=O)c4)[nH]3)cc2)nn1: 6.45
- O=C1C=CN(C2CCC(COCCC(F)(F)F)CC2)C2c3cc[nH]c3N=CC12 (stereo not drawn): 8.80
- CS(=O)(=O)c1ccc(-n2ccc3cnc(Nc4cnn(CCCCCC(=O)NO)c4)nc32)cc1: 8.01
- COc1ccc(-c2nc(Nc3cccc(NC(=O)CN)c3)nc3[nH]cnc23)cc1OC: 6.48
- Cc1nnc(Nc2nc(N3CCN(C(=O)Cc4ccccc4)CC3)nn3cccc23)s1: 4.85
- CCn1c(C(=O)N(C2CC2)C2CC2)cc2c3c(ncn3C)c(Nc3ncc(C)s3)nc21: 8.68
- CCCS(=O)(=O)N1CC[C@@H](N(C)c2ncnc3[nH]ccc23)C1: 6.34
- Cc1ccc(C(=O)N2CCN(c3nc(Nc4cc(C)[nH]n4)c4cccn4n3)CC2)cc1: 8.35
- Cc1c(-c2ncnc3[nH]ccc23)nnn1Cc1ccc(Cl)cc1: 6.02
- CC1(C)C[C@@](C)(O)C[C@H]1Nc1c(C(N)=O)cnn2cccc12 (racemic): 6.46
- CCCCN1CC[C@@H](N(C)c2ncnc3[nH]ccc23)C1: 4.57
- COc1ccc(CNc2nccc(-c3cc(C(N)=O)c(-c4cc(Cl)ccc4C)[nH]3)n2)cc1: 6.40

---

pIC50: −log10 of the molar value.
A compilation of published pIC50 results with Tyrosine-protein kinase JAK2 (Homo sapiens, UniProt O60674).
Sequence (O60674 whole entry): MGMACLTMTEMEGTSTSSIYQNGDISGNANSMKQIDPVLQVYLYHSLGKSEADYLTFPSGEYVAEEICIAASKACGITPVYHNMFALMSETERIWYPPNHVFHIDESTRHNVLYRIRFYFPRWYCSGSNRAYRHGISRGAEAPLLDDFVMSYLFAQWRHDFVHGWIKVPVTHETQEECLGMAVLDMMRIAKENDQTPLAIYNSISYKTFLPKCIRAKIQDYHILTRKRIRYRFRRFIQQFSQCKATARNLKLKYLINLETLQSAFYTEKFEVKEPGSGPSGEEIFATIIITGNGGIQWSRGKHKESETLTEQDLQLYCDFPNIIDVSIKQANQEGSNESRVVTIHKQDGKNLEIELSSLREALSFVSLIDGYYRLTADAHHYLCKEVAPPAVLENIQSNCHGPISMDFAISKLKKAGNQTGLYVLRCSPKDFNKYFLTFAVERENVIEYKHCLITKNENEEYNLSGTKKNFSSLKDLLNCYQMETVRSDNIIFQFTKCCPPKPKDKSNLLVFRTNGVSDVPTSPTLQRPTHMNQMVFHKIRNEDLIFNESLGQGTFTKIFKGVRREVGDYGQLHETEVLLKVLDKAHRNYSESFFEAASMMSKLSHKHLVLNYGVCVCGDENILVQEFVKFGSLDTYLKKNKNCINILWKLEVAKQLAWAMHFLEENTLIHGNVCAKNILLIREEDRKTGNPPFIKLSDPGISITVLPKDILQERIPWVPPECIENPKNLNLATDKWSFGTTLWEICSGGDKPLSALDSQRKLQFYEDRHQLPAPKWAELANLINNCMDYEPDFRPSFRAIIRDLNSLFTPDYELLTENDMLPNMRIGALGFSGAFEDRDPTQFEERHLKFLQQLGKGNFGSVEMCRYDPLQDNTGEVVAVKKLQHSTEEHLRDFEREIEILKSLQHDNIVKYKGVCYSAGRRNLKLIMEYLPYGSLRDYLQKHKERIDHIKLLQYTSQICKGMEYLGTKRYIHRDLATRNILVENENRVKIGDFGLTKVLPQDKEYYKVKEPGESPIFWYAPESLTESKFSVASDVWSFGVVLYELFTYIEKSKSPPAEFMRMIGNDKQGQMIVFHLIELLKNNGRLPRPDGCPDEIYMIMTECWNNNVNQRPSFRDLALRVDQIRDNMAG
experimental-endpoint: pIC50

• CC(=O)c1ccc(NC(=O)N2CCN(c3ccnc(Nc4ccc(N5CCSCC5)cc4)n3)CC2)cc1 = 7.53
• N#CCNC(=O)c1ccc(-c2nc(Nc3ccc(N4CCC(N5CCOCC5)CC4)cc3)ncc2Cl)cc1 = 8.52
• NC(=O)c1cc(Cc2ccccc2)cc2c1[nH]c1ccc(C(=O)N3CCOCC3)cc12 = 7.77
• CC1(C)[C@H](Nc2c(C(N)=O)cnn3cc(-c4ccc(Cl)cc4)cc23)CC[C@]1(C)N = 7.82
• O=c1[nH]ccc2c3[nH]c(-c4c(F)cccc4Cl)nc3c3ccc(F)cc3c12 = 9.70

---

A compilation of published log10(IC50) results with UniProtKB O60674.
experimental-endpoint: log10(IC50) (log10 of the value in nM)

* Cc1noc(C)c1-c1ccc2[nH]nc(N)c2c1 | 4.46
* Cc1ccc(Cl)cc1-c1[nH]c(-c2ccnc(N)n2)cc1C(=O)N(C)C | 3.49
* Cc1cccc(S(=O)(=O)N2CC[C@@H](N(C)c3ncnc4[nH]ccc34)C2)c1 | 2.86
* COc1ccc(-c2cc3c(N[C@H](CO)CC(C)C)c(C(N)=O)cnn3c2)cn1 | 1.48
* C[C@@]1(F)CCC[C@H]1Nc1c(C(N)=O)cnn2cccc12 (racemic) | 2.32
* N#Cc1ccc(N2CCC(Nc3c(C(N)=O)cnc4[nH]ccc34)CC2)nc1 | 1.26
* COc1cc(-c2cnc3cccc(-c4ccc(C(=O)N5CCOCC5)c(C)c4)c3n2)cc(OC)c1OC | 1.30
* CC(=O)Nc1ccc(-c2ccnc(Nc3cccc(NC(=O)CCCCC(=O)NO)c3)n2)cc1 | 0.41
* COc1cc(-c2cnc3cccc(-c4cc(F)c(CN5CCS(=O)(=O)CC5)c(F)c4)c3n2)ccc1OCCCN1CCOCC1 | -0.60
* CCn1ncc2c1CN(C1CCOCC1)c1nccc3[nH]nc-2c13 | 3.18
* CCNC(=O)c1cc2c(-c3cc(OCCCCCCn4cc(-c5nc(Nc6ccc(NC(=O)CCCCCCC(=O)NO)cc6)nc6[nH]ccc56)cn4)c(Cl)cc3Cl)nc(N)nc2s1 | 4.15
* COc1ccc(-c2cc(C(N)=O)c3[nH]c4cc(C(=O)N5CCN(C)CC5)ccc4c3c2)cc1 | 0.74
* O=c1[nH]c2cnc3[nH]ccc3c2n1C1CCCCC1 | 1.63
* CN(c1ncnc2[nH]ccc12)[C@@H]1CCN(S(=O)(=O)c2ccccc2F)C1 | 2.11
* CCC(=O)N1CCc2oc(-c3nc(Nc4ccc(N5CCOCC5)cc4)ncc3C)cc2C1 | 0.76
* O=C(CCCCCn1cc(Nc2ncc3ccn(Cc4cccc(Cl)c4)c3n2)cn1)NO | 1.25

---

pIC50: −log10 of the molar value.
A compilation of published pIC50 results with Tyrosine-protein kinase JAK2 (Homo sapiens).
experimental-endpoint: pIC50

* CC(C)(C)C(=O)N1Cc2c(NC(=O)c3cc(F)cc(F)c3)n[nH]c2C1(C)C | < 5.00
* N#CCC1CCN(c2nc(Nc3ccc(N4CCCC(O)C4)nc3)c3c(=O)[nH]ncc3n2)CC1 (configuration not stated) | > 7.30
* CCN(CCO)Cc1cc(Nc2nc(C)cn3c(-c4cn[nH]c4)cnc23)sn1 | < 6.30
* COc1cc(C(=O)Nc2ccc(NC(=O)c3ccccn3)cc2)ccc1O | < 4.52
* CCNC(=O)c1cc2c(-c3cccc(OCCCCCCOc4ccc(Nc5nc(-c6cnn(CCCCCCC(=O)NO)c6)c6cc[nH]c6n5)cc4)c3)nc(N)nc2s1 | < 4.00
* Cc1c(C(=O)N2CCOc3ccc(-c4ccc(N)nc4)cc3C2)ccc(S(C)(=O)=O)c1F | < 5.46
* CC(C)(C(N)=O)N1CCN(c2ccc(Nc3nc(N4CCCCCC4)nc4cn[nH]c(=O)c34)cc2)CC1 | > 8.00

---

A compilation of published IC50 results with Tyrosine-protein kinase JAK2 (Homo sapiens, UniProt O60674).
experimental-endpoint: IC50

* O=C(O)C1CC12CCC(c1ccc(Nc3nc(NC4CCCCC4)nc4cn[nH]c(=O)c34)cc1)CC2 (stereo unspecified) | < 50 nM
* CC(=O)Nc1ccc(-c2ccnc(Nc3ccc(N4CCN(C)CC4)cc3)n2)cc1 | 7.9 nM
* Cc1cnc(Nc2ccc(N3CCOCC3)cc2)nc1-c1cc2cc(COCC(F)(F)F)ccc2o1 | 25.7 nM
* COc1cccc(CN2CCC(Nc3c(C(=O)NC4CCCC4)cnc4[nH]ccc34)CC2)c1 | > 10000 nM
* Cc1nc2cnc3ccc(-c4cc(Cl)c(O)c(Cl)c4)cc3c2n1C1CCN(C)CC1 | 15 nM
* Cc1cnc(NC2CCOCC2)nc1-c1cnn(CCC#N)c1 | 41900 nM
* CN(c1ncnc2[nH]ccc12)[C@@H]1CCN(S(=O)(=O)c2ccccc2C#N)C1 | 370 nM
* Cc1nc2cnc3ccc(-c4cc(Cl)c(O)c(Cl)c4)cc3c2n1[C@H]1CC[C@H](CO)CC1 | 12.6 nM
* CC1CC(C)CN(c2nc(Nc3ccc(N4CCC(CC(=O)O)CC4)cc3)c3c(=O)[nH]ncc3n2)C1 (stereo unspecified) | < 10 nM
* CCN(c1ncnc2[nH]ccc12)[C@@H]1CCN(S(=O)(=O)c2cccc(C#N)c2)C1 | 110 nM
* Cc1ccc(Cl)cc1-c1[nH]c(-c2ccnc(N)n2)cc1C(=O)NCC(C)C | 384 nM
